Assay: Ex vivo biodistribution in normal mice
Parameters: species or system ddY mice
Conditions: i.v., 2 min after injection, mean (SD), 5 animals
valueKind: Biodistribution of radioactivity, Stomach

[Q] Endpoint output: Biodistribution of radioactivity, Stomach of CN(C)c1ccc(-c2nc3ccc(C4=N[O][99Tc-]5(=[O])([NH]4)[NH2+]C(c4ccc6nc(-c7ccc(N(C)C)cc7)sc6c4)=N[O]5)cc3s2)cc1 [[^99mTc]BT2B] . Value?
[A] 0.69 (0.12) % injected dose per organ

[Q] Endpoint output: Biodistribution of radioactivity, Stomach of CN(C)c1ccc(/C=C/c2ccc(C3=N[O][99Tc-]4(=[O])([NH]C(c5ccc(N(C)C)cc5)=N[O]4)[NH2+]3)cc2)cc1 (single isomer, unassigned) [[^99mTc]SB1A] . Value?
[A] 1.64 (0.41) % injected dose per organ

[Q] Endpoint output: Biodistribution of radioactivity, Stomach of CN(C)c1ccc(C2=N[O][99Tc-]3(=[O])([NH]2)[NH2+]C(c2ccc4nc(-c5ccc(N(C)C)cc5)sc4c2)=N[O]3)cc1 [[^99mTc]BT1B] . Value?
[A] 1.39 (0.21) % injected dose per organ

[Q] Endpoint output: Biodistribution of radioactivity, Stomach of CN(C)c1ccc(/C=C/c2ccc(C3=N[O][99Tc-]4(=[O])([NH]3)[NH2+]C(c3ccc(/C=C/c5ccc(N(C)C)cc5)cc3)=N[O]4)cc2)cc1 (single isomer, unassigned) [[^99mTc]SB2A] . Value?
[A] 3.15 (0.56) % injected dose per organ
